- System: 633275-114-R-J1-PDC complex spheroids, viability
- test.description: Anticancer human tumor 633275-114-R-J1-PDC patient-derived endometrial adenocarcinoma cell line growth inhibition [GQUAD]
- conditions: second compound 3.16 µM; first compound 10 µM; stronger effect = lower value
Please note: viability, T/C exactly at 30% is False. Only values below 30% get True.

CC(=O)O[C@H]1C(=O)[C@@]2(C)[C@H]([C@H](OC(=O)c3ccccc3)[C@]3(O)C[C@H](OC(=O)[C@H](O)[C@@H](NC(=O)c4ccccc4)c4ccccc4)C(C)=C1C3(C)C)[C@]1(OC(C)=O)CO[C@@H]1C[C@@H]2O + CN(C)c1ccc(Nc2c3ccc(NC(=O)CCN4CCCC4)cc3nc3cc(NC(=O)CCN4CCCC4)ccc23)cc1
True
C=CC(=O)N1CCN(c2nc(=O)n(-c3c(C)ccnc3C(C)C)c3nc(-c4c(O)cccc4F)c(F)cc23)C(C)C1 (stereo not given) + Cc1[nH]c2ccc(F)cc2c1-c1nc2c3cccnc3c3ncccc3c2[nH]1
False
CC(C)n1c(=O)n(C)c2cnc3cc(F)c(-c4ccc(OCCCN5CCCCC5)nc4)cc3c21 + Cc1cnc(CNC(=O)c2c(=O)c3ccc(N4CCCN(C)CC4)nc3n3c2sc2ccccc23)cn1
True

Now take the following compound into account.
Exercise: Criterion: viability, T/C strictly below 30%. Is it met by Cc1cccc(N(C)C(=O)C2C(O)CCN2c2nc(C)cc(C(F)(F)F)c2C#N)c1 (stereo not given) + Cc1[nH]c2ccc(F)cc2c1-c1nc2c3cccnc3c3ncccc3c2[nH]1 ?
Key: False

----------
Quick list: viability, T/C per entry.
- Tested on: 633275-114-R-J1-PDC complex spheroids, viability
- test.description: Anticancer human tumor 633275-114-R-J1-PDC cell line growth inhibition [GQUAD];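 note: spheroids exposed to the agents for seven days; percent of DMSO vehicle control viability which is 100%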
- conditions: second compound 10 µM; first compound 0.1 µM; stronger effect = lower value
// note: answer is a bare numeric in %

Here's what some known entries look like.
Cc1cccc(N(C)C(=O)C2C(O)CCN2c2nc(C)cc(C(F)(F)F)c2C#N)c1 (stereo not given) + CN(C)c1ccc(Nc2c3ccc(NC(=O)CCN4CCCC4)cc3nc3cc(NC(=O)CCN4CCCC4)ccc23)cc1
34.7
COc1ccc([C@@H](O)c2cc(-c3ncnc4cc(N5CCOCC5)ccc34)c(F)cc2Cl)nn1 + Cc1cnc(CNC(=O)c2c(=O)c3ccc(N4CCCN(C)CC4)nc3n3c2sc2ccccc23)cn1
27.5
C=CCn1c(=O)c2cnc(Nc3ccc(N4CCN(C)CC4)cc3)nc2n1-c1cccc(C(C)(C)O)n1 + Cc1[nH]c2ccc(F)cc2c1-c1nc2c3cccnc3c3ncccc3c2[nH]1
55

Exercise: I have this compound here, O=C(c1cc(Cc2n[nH]c(=O)c3ccccc23)ccc1F)N1CCN(C(=O)C2CC2)CC1 + CN(C)c1ccc(Nc2c3ccc(NC(=O)CCN4CCCC4)cc3nc3cc(NC(=O)CCN4CCCC4)ccc23)cc1 , and I need its recorded viability, T/C.
Key: 26.1

Exercise: What do you get for CC1COCCN1c1cc(C2(O)CC3CCC(C2)O3)c2cnn(-c3ccn[nH]3)c2n1 (stereo not given) + Cc1cnc(CNC(=O)c2c(=O)c3ccc(N4CCCN(C)CC4)nc3n3c2sc2ccccc23)cn1 ?
Key: 24.4

----------
- System: 633275-114-R-J1-PDC complex spheroids, viability
- test.description: Anticancer human tumor 633275-114-R-J1-PDC cell line growth inhibition [GQUAD];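 note: spheroids exposed to the agents for seven days; percent of DMSO vehicle control viability which is 100%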
- conditions: second compound 1 µM; first compound 10 µM; stronger effect = lower value
Reported viability, T/C values follow for various compounds
API: value field is a number in %; no unit string.

O=c1[nH]cc(F)c(=O)[nH]1 + CN(C)c1ccc(Nc2c3ccc(NC(=O)CCN4CCCC4)cc3nc3cc(NC(=O)CCN4CCCC4)ccc23)cc1
64.3
C#Cc1c(F)ccc2cc(O)cc(-c3ncc4c(N5CC6CCC(C5)N6)nc(OCC56CCCN5CC(F)C6)nc4c3F)c12 (stereo not given) + Cc1cnc(CNC(=O)c2c(=O)c3ccc(N4CCCN(C)CC4)nc3n3c2sc2ccccc23)cn1
26.8
CC(C)(O)C1CCC(Nc2ccc3ncc(-c4cccc(C(F)(F)F)c4)n3n2)CC1 (stereo not given) + Cc1[nH]c2ccc(F)cc2c1-c1nc2c3cccnc3c3ncccc3c2[nH]1
27
CC(=O)O[C@H]1C(=O)[C@@]2(C)[C@H]([C@H](OC(=O)c3ccccc3)[C@]3(O)C[C@H](OC(=O)[C@H](O)[C@@H](NC(=O)c4ccccc4)c4ccccc4)C(C)=C1C3(C)C)[C@]1(OC(C)=O)CO[C@@H]1C[C@@H]2O + Cc1[nH]c2ccc(F)cc2c1-c1nc2c3cccnc3c3ncccc3c2[nH]1
17.2
O=C(NO)c1cnc(N2CCN(S(=O)(=O)c3ccc4ccccc4c3)CC2)nc1 + CN(C)c1ccc(Nc2c3ccc(NC(=O)CCN4CCCC4)cc3nc3cc(NC(=O)CCN4CCCC4)ccc23)cc1
5.49
CC1COCCN1c1cc(C2(O)CC3CCC(C2)O3)c2cnn(-c3ccn[nH]3)c2n1 (stereo not given) + Cc1cnc(CNC(=O)c2c(=O)c3ccc(N4CCCN(C)CC4)nc3n3c2sc2ccccc23)cn1
4.76
C=CCn1c(=O)c2cnc(Nc3ccc(N4CCN(C)CC4)cc3)nc2n1-c1cccc(C(C)(C)O)n1 + Cc1cnc(CNC(=O)c2c(=O)c3ccc(N4CCCN(C)CC4)nc3n3c2sc2ccccc23)cn1
17.3
CC1COCCN1c1cc(C2(S(C)(=N)=O)CC2)nc(-c2ccnc3[nH]ccc23)n1 (stereo not given) + Cc1[nH]c2ccc(F)cc2c1-c1nc2c3cccnc3c3ncccc3c2[nH]1
34.3
CC1COCCN1c1cc(-c2ccnn2C)c2ccnc(-c3ccn[nH]3)c2n1 (stereo not given) + Cc1cnc(CNC(=O)c2c(=O)c3ccc(N4CCCN(C)CC4)nc3n3c2sc2ccccc23)cn1
11.1

Exercise: Reported viability, T/C, compound COc1cccc2c1C(=O)c1c(O)c3c(c(O)c1C2=O)CC(O)(C(=O)CO)CC3OC1CC(N)C(O)C(C)O1 (stereo not given) + Cc1cnc(CNC(=O)c2c(=O)c3ccc(N4CCCN(C)CC4)nc3n3c2sc2ccccc23)cn1 : ____
Key: 0.65

----------
- System: 633275-114-R-J1-PDC complex spheroids, viability
- test.description: Anticancer human tumor 633275-114-R-J1-PDC cell line growth inhibition [GQUAD];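 note: spheroids exposed to the agents for seven days; percent of DMSO vehicle control viability which is 100%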
- conditions: second compound 1 µM; first compound 10 µM; stronger effect = lower value
This listing pairs molecules with measured viability, T/C.
Reply numerically in %, unit not repeated.

COc1ncnc(C2CC2)c1-c1ncc2cnn(Cc3ccc(-c4nc(C(F)(F)F)cn4C(C)C)cc3)c2n1 + Cc1cnc(CNC(=O)c2c(=O)c3ccc(N4CCCN(C)CC4)nc3n3c2sc2ccccc23)cn1
38.7
COc1ccc([C@@H](O)c2cc(-c3ncnc4cc(N5CCOCC5)ccc34)c(F)cc2Cl)nn1 + CN(C)c1ccc(Nc2c3ccc(NC(=O)CCN4CCCC4)cc3nc3cc(NC(=O)CCN4CCCC4)ccc23)cc1
26.8

Exercise: viability, T/C lookup needed for C=CC(=O)N1CCN(c2nc(=O)n(-c3c(C)ccnc3C(C)C)c3nc(-c4c(O)cccc4F)c(F)cc23)C(C)C1 (stereo not drawn) + Cc1[nH]c2ccc(F)cc2c1-c1nc2c3cccnc3c3ncccc3c2[nH]1 , thanks.
Key: 77.9

----------
Entries and their viability, T/C
- System: 633275-114-R-J1-PDC complex spheroids, viability
- test.description: Anticancer human tumor 633275-114-R-J1-PDC cell line growth inhibition [GQUAD];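 note: spheroids exposed to the agents for seven days; percent of DMSO vehicle control viability which is 100%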
- conditions: second compound 0.0316 µM; first compound 3.16 µM; stronger effect = lower value
Output spec: scalar in %, unitless text.

COc1ncnc(C2CC2)c1-c1ncc2cnn(Cc3ccc(-c4nc(C(F)(F)F)cn4C(C)C)cc3)c2n1 + Cc1[nH]c2ccc(F)cc2c1-c1nc2c3cccnc3c3ncccc3c2[nH]1
91.4
Cc1cccc(N(C)C(=O)C2C(O)CCN2c2nc(C)cc(C(F)(F)F)c2C#N)c1 (stereo unspecified) + Cc1cnc(CNC(=O)c2c(=O)c3ccc(N4CCCN(C)CC4)nc3n3c2sc2ccccc23)cn1
60.5
CC(C)n1c(=O)n(C)c2cnc3cc(F)c(-c4ccc(OCCCN5CCCCC5)nc4)cc3c21 + Cc1cnc(CNC(=O)c2c(=O)c3ccc(N4CCCN(C)CC4)nc3n3c2sc2ccccc23)cn1
56.4
CC1COCCN1c1cc(-c2ccnn2C)c2ccnc(-c3ccn[nH]3)c2n1 (stereo unspecified) + CN(C)c1ccc(Nc2c3ccc(NC(=O)CCN4CCCC4)cc3nc3cc(NC(=O)CCN4CCCC4)ccc23)cc1
18
O=c1[nH]cc(F)c(=O)[nH]1 + Cc1[nH]c2ccc(F)cc2c1-c1nc2c3cccnc3c3ncccc3c2[nH]1
86
CC(C)(O)C1CCC(Nc2ccc3ncc(-c4cccc(C(F)(F)F)c4)n3n2)CC1 (stereo unspecified) + Cc1[nH]c2ccc(F)cc2c1-c1nc2c3cccnc3c3ncccc3c2[nH]1
32.2
CCCS(=O)(=O)Nc1ccc(F)c(C(=O)c2c[nH]c3ncc(-c4ccc(Cl)cc4)cc23)c1F + Cc1cnc(CNC(=O)c2c(=O)c3ccc(N4CCCN(C)CC4)nc3n3c2sc2ccccc23)cn1
69.4
COc1ccc([C@@H](O)c2cc(-c3ncnc4cc(N5CCOCC5)ccc34)c(F)cc2Cl)nn1 + Cc1cnc(CNC(=O)c2c(=O)c3ccc(N4CCCN(C)CC4)nc3n3c2sc2ccccc23)cn1
19.2
CC(C)n1c(=O)n(C)c2cnc3cc(F)c(-c4ccc(OCCCN5CCCCC5)nc4)cc3c21 + Cc1[nH]c2ccc(F)cc2c1-c1nc2c3cccnc3c3ncccc3c2[nH]1
95.3
C=CC(=O)N1CCN(c2nc(=O)n(-c3c(C)ccnc3C(C)C)c3nc(-c4c(O)cccc4F)c(F)cc23)C(C)C1 (stereo unspecified) + CN(C)c1ccc(Nc2c3ccc(NC(=O)CCN4CCCC4)cc3nc3cc(NC(=O)CCN4CCCC4)ccc23)cc1
106

Below: the item to evaluate.
Exercise: Looking for the measured viability, T/C of COc1cccc2c1C(=O)c1c(O)c3c(c(O)c1C2=O)CC(O)(C(=O)CO)CC3OC1CC(N)C(O)C(C)O1 (stereo unspecified) + CN(C)c1ccc(Nc2c3ccc(NC(=O)CCN4CCCC4)cc3nc3cc(NC(=O)CCN4CCCC4)ccc23)cc1 , can you help?
Key: 1.62
